system: Staphylococcus aureus; assay: Antibacterial activity against […] Staphylococcus aureus SA1199B after 18 hrs; format: functional

- Compound: "C=C(C)[C@@H]1CCC(C)=C[C@H]1c1c(O)cc(CCCCC)c(C(=O)OC)c1O"
  Units Of Measure: "µg/mL"
  Censoring Sign: ">"
  MIC: 128
- Compound: "CCCCCc1cc(O)c(C/C=C(\\C)CCC=C(C)C)c(O)c1 [CANNABIGEROL]"
  Units Of Measure: "µg/mL"
  Censoring Sign: "="
  MIC: 1
- Compound: "CCCCCc1cc(O)c(C/C=C(\\C)CCC=C(C)C)c(OC)c1"
  Units Of Measure: "µg/mL"
  Censoring Sign: ">"
  MIC: 128
- Compound: "CCCCCc1cc(O)c(C/C=C(\\C)CCC=C(C)C)c(O)c1C(=O)O [CANNABIGEROLIC ACID]"
  Units Of Measure: "µg/mL"
  Censoring Sign: "="
  MIC: 4
- Compound: "CCCCCc1cc(O)cc(O)c1C/C=C(\\C)CCC=C(C)C"
  Units Of Measure: "µg/mL"
  Censoring Sign: "="
  MIC: 2
- Compound: "C=C(C)[C@@H]1CCC(C)=C[C@H]1c1c(O)cc(CCCCC)cc1O [CANNABIDIOL]"
  Units Of Measure: "µg/mL"
  Censoring Sign: "="
  MIC: 1
- Compound: "CCCCCc1cc2c(c(O)c1C(=O)O)[C@@H]1C=C(C)CC[C@H]1C(C)(C)O2 [DELTA9-TETRAHYDROCANNABINOLIC ACID A]"
  Units Of Measure: "µg/mL"
  Censoring Sign: "="
  MIC: 8
- Compound: "CCCCCc1cc(O)c2c(c1)OC(C)(CCC=C(C)C)C=C2 (stereo unspecified) [CANNABICHROMENE]"
  Units Of Measure: "µg/mL"
  Censoring Sign: "="
  MIC: 2
- Compound: "C=C(C)C1CCC(C)=CC1c1c(CCCCC)cc(O)c([C@@H]2C=C(C)CC[C@H]2C(=C)C)c1O (stereo partly specified)"
  Units Of Measure: "µg/mL"
  Censoring Sign: ">"
  MIC: 128
- Compound: "C=C(C)[C@@H]1CCC(C)=C[C@H]1c1c(O)cc(CCCCC)c(C(=O)OCCc2ccccc2)c1O"
  Units Of Measure: "µg/mL"
  Censoring Sign: ">"
  MIC: 128
- Compound: "CCCCCc1cc(O)c(C/C=C(\\C)CCC(O)C(C)(C)O)c(O)c1 (stereo unspecified) [CARMAGEROL]"
  Units Of Measure: "µg/mL"
  Censoring Sign: "="
  MIC: 32
